# experimental-system: His-Dbv6 (Nonomuraea gerenzanensis)
# Sequence: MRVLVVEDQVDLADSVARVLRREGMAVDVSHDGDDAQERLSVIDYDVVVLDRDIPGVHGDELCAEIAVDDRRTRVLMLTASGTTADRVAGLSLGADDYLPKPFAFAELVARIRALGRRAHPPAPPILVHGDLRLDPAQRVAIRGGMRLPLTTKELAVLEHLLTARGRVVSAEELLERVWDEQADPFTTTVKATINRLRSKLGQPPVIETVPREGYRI
# method-notes: EMSA
# test-context: 12.5 mM Tris-HCl pH 7.5, 10% glycerol, 62.5 mM KCl, 0.75 mM DTT, 5 mM MgCl2, 20 uL, 4 C; 2.8-14 ug Dbv6 (legend: 0.5-2 mM), 100 ng DNA (legend: …)

seq	binding
TGAAGGCGACGATCAACCGGCTGCGCTCGAAGCTCGGCCAGCCGCCGGTGATCGAAACCGTCCCGCGCGAGGGATATCGCATCTGATCCGCGCGGTCACAGAGCGGTCACACGTTCTCTGACCCTCGTGTCACCTTCTGCTCCGTAGAACTGGTGTCAGATCACCAGACTGGAGGAGAGGGATGAGGA (double strand) [updbv7]	binds
CCTTCAGCAAACCTCCGAACGGCGACACTATGGCCATGCGGGACTCCTCTCACACGCGCACGCAAGTCAGCGACCTCAATCGTGCTGAGCGGAGCCGATGTCCACGAGTGGGTCCAACTGAACAGTTCGCGCGCTTGGACGCGTTCACCGGTGGTGGTGACCAAGCGTTCACCTGGAC (double strand) [updbv23]	binds

---

# experimental-system: His-Dbv6 (Nonomuraea gerenzanensis)
# Sequence: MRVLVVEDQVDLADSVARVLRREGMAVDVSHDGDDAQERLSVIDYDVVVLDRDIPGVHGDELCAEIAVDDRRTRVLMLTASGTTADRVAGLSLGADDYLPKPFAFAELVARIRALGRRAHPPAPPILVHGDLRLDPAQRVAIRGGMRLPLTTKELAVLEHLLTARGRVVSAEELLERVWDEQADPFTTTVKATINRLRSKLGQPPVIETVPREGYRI
# method-notes: EMSA
# test-context: 12.5 mM Tris-HCl pH 7.5, 10% glycerol, 62.5 mM KCl, 0.75 mM DTT, 5 mM MgCl2, 20 uL, 4 C; 2.8-14 ug Dbv6 (legend: 0.5-2 mM), 100 ng DNA (legend: …)

seq	binding
GCAGGTCGGAAGGGACATCTGTTCGGTGGGTGCCGGGCGCTCCATGGCAACTCCCGCGTCATCGAGGTGCTGCGCAGCCCTCGAAGGTCGCACCCGCGGACGAGAGCCTGCTTGATCGCAAGCGTGCTCAACGGACTCGATGTCTACAAGCCGGTCCAGGTGAACGCTTGGTCAC (double strand) [updbv24]	binds
GCAGGAATGGGAAAGGATCTTGCGCGGAGTGCCGCCGCATTGGGGCACCGTTGTCGCGAGATGCGCCAGGGATCATGCCCAGATCTGGGCAGCGTTCGCGGATCGCCTGGAGGGGCGGGCGACCGATCTGGCCGCTGGATGAGCACGAGTGGATGAGCCGGGCGGCCGTATGTAGAGCGACGGGACCAGGACCAGATCAGGCACACGGCAAACCAAGTCGACGAACCGCTTGGGGGACGAGCAAGAGTGCTGTTCGGGCGAGATCGTGAACTGAAGAGTCTGACGAGGTTGCTCGATTC (double strand) [updbv3]	binds
GCATCGGTCTTATCCGAAACTAGGGGGGTGGATGTCCGGGATAGGGGGTGGTTCGACCTGCACAGCCTCCTTTAACCTTCCGGAGGAAGGCCTAACCGAAAGTCGGAGTGATCGGAATGCTAACGGGAAGCGTTCTGCAATTCGATGAGGTAGACGGCTACGGATTCGCGGCGACAGCGTCCAATTCTTTGCCGCGTGGAGTTGCCGAAGAAAAGAGGATGCGACG (double strand) [updbv4]	binds
